# Test system: Cricetinae gen. sp.
# test.summary: Inhibitory activity against cholesterol absorption in the hamster.
# Assay type: functional
Label T when Relative potency < 8; otherwise F.

C[C@@H]1CC[C@@]2(OC1)O[C@H]1C[C@H]3[C@@H]4CC[C@H]5C[C@@H](O[C@@H]6O[C@@H](CO)[C@@H](O[C@@H]7O[C@@H](CO)[C@@H](OC(=O)Nc8ccccc8F)[C@H](O)[C@@H]7O)[C@H](O)[C@@H]6O)CC[C@]5(C)[C@H]4CC(=O)[C@]3(C)[C@H]1[C@@H]2C: T
C[C@@H]1CC[C@@]2(OC1)O[C@H]1C[C@H]3[C@@H]4CC[C@H]5C[C@@H](O[C@@H]6O[C@@H](COC(=O)Nc7ccccc7F)[C@@H](O[C@@H]7O[C@@H](COC(=O)Nc8ccccc8F)[C@@H](O)[C@H](O)[C@@H]7O)[C@H](O)[C@@H]6O)CC[C@]5(C)[C@H]4C(=O)C[C@]3(C)[C@H]1[C@@H]2C: F
C[C@@H]1CC[C@@]2(OC1)OC1C[C@H]3[C@@H]4CC[C@H]5C[C@@H](O[C@@H]6O[C@@H](C)[C@@H](O[C@@H]7O[C@@H](CO)[C@@H](O)[C@H](O)[C@@H]7O)[C@H](O)[C@@H]6O)CC[C@]5(C)[C@H]4CC(=O)[C@]3(C)C1[C@@H]2C (some centres not stated): F
C[C@@H]1CC[C@@]2(OC1)O[C@H]1C[C@H]3[C@@H]4CC[C@H]5C[C@@H](O[C@@H]6O[C@@H](CO)[C@@H](O[C@@H]7O[C@@H](CO)[C@@H](OC(=O)Nc8ccccc8F)[C@H](O)[C@@H]7O)[C@H](O)[C@@H]6O)CC[C@]5(C)[C@H]4C(=O)C[C@]3(C)[C@H]1[C@@H]2C: T
C[C@@H]1CC[C@@]2(OC1)O[C@H]1C[C@H]3[C@@H]4CC[C@H]5C[C@@H](O[C@@H]6O[C@@H](C)[C@@H](O[C@@H]7O[C@@H](C)[C@@H](O)[C@H](O)[C@@H]7O)[C@H](O)[C@@H]6O)CC[C@]5(C)[C@H]4CC(=O)[C@]3(C)[C@H]1[C@@H]2C: F

Prompt line: Say whether its Relative potency is strictly beneath 8. Entry: C[C@@H]1CC[C@@]2(OC1)O[C@H]1C[C@H]3[C@@H]4CC[C@H]5C[C@@H](O[C@@H]6O[C@@H](CO)[C@@H](O[C@@H]7O[C@@H](COC(=O)Nc8ccccc8F)[C@@H](OC(=O)Nc8ccccc8F)[C@H](O)C7O)[C@H](O)[C@@H]6O)CC[C@]5(C)[C@H]4CC(=O)[C@]3(C)[C@H]1[C@@H]2C (some centres not stated)
Response line: T

Prompt line: Say whether its Relative potency is strictly beneath 8. Entry: C[C@@H]1CC[C@@]2(OC1)O[C@H]1C[C@H]3[C@@H]4CC[C@H]5C[C@@H](O[C@@H]6O[C@@H](CO)[C@@H](O[C@@H]7O[C@@H](COC(=O)Nc8ccccc8F)C[C@H](O)[C@@H]7O)[C@H](O)[C@@H]6O)CC[C@]5(C)[C@H]4CC(=O)[C@]3(C)[C@H]1[C@@H]2C
Response line: T

Prompt line: Say whether its Relative potency is strictly beneath 8. Entry: C[C@@H]1CC[C@@]2(OC1)O[C@H]1C[C@H]3[C@@H]4CC[C@H]5C[C@@H](O[C@@H]6O[C@@H](CO)[C@@H](O[C@@H]7O[C@@H](C)[C@@H](OC(=O)Nc8ccccc8F)[C@H](O)[C@@H]7O)[C@H](O)[C@@H]6O)CC[C@]5(C)[C@H]4CC(=O)[C@]3(C)[C@H]1[C@@H]2C
Response line: T

Prompt line: Say whether its Relative potency is strictly beneath 8. Entry: C[C@@H]1CC[C@@]2(OC1)O[C@H]1C[C@H]3[C@@H]4CC[C@H]5C[C@@H](O[C@@H]6O[C@@H](CO)[C@@H](O[C@@H]7O[C@@H](COC(=O)Nc8ccccc8F)[C@@H](OC(=O)Nc8ccccc8F)[C@H](O)C7O)[C@H](O)[C@@H]6O)CC[C@]5(C)[C@H]4C(=O)C[C@]3(C)[C@H]1[C@@H]2C (some centres not stated)
Response line: T

Prompt line: Say whether its Relative potency is strictly beneath 8. Entry: C[C@@H]1CC[C@@]2(OC1)O[C@H]1C[C@H]3[C@@H]4CC[C@H]5C[C@@H](O[C@@H]6O[C@@H](CO)[C@@H](O[C@@H]7O[C@@H](CO)C[C@H](O)[C@@H]7O)[C@H](O)[C@@H]6O)CC[C@]5(C)[C@H]4CC(=O)[C@]3(C)[C@H]1[C@@H]2C
Response line: F
